# testTarget: T1, human monomeric MuSK FLAG streptavidin (in house produced, batch 27-6-2019) (human, UniProt O15146 24-495)
# T1 construct: also called full length MuSK; not shown: FLAG and streptavidin tags
# T1 sequence: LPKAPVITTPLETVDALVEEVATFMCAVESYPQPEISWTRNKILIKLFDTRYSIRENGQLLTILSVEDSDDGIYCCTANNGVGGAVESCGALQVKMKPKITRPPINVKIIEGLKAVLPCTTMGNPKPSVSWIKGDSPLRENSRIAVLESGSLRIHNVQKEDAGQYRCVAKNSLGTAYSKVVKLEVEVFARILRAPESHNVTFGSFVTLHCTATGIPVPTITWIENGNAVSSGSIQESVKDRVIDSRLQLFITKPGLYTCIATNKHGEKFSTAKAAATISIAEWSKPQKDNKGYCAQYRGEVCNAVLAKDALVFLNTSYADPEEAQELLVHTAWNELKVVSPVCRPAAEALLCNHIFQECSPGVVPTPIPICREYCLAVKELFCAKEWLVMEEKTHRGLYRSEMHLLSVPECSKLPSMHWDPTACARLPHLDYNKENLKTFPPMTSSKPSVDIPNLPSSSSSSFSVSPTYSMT
# measurementDescription: epitope binning ELISA (coated anti-MuSK Fab, MuSK, IgG, anti-Fc HRP); competitor: 4D3
# Protocol: For epitope binning—An ELISA plate was coated at 1 μg/ml of the anti-MuSK Fabs and incubated overnight at 4° C. Next, the plate was wash with PBS followed by blocking with 1% casein in PBS for one hour. After washing the plate, 1 μg/ml of human monomeric MuSK (in house produced, batch 27-6-2019) was incubated for one hour at RT. The plate was washed and anti-MuSK antibodies at 0.3-10 μg/ml were added to the plate and incubated for one hour at RT. […]
Just a reminder that ties go to criterion not met: only OD 450 nm strictly below 0.08 OD counts as criterion met.

4D3 (antibody, human IgG1, kappa, L234A L235A, V domains shown) VH: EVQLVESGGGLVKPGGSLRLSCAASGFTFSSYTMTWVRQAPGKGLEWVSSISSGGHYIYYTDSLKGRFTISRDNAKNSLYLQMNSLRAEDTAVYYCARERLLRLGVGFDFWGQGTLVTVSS VL: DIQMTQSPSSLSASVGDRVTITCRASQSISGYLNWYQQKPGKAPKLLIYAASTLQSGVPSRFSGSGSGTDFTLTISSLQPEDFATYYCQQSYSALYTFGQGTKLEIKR | criterion met
3D10a (antibody, human IgG1, kappa, L234A L235A, V domains shown) VH: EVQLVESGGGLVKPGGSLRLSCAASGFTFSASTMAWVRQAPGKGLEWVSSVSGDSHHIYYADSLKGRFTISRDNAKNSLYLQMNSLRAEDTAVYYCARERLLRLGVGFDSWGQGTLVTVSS VL: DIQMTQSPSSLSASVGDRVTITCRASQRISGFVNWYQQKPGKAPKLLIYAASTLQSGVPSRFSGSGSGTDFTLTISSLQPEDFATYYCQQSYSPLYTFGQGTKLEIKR | criterion met
3D9b (antibody, human IgG1, kappa, L234A L235A, V domains shown) VH: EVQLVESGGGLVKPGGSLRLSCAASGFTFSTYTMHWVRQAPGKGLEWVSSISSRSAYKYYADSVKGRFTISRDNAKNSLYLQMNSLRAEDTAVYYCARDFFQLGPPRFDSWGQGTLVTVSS VL: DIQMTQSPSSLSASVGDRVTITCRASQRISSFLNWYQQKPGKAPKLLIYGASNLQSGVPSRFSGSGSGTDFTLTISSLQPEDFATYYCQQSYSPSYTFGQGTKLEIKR | criterion not met
3F6c (antibody, human IgG1, kappa, L234A L235A, V domains shown) VH: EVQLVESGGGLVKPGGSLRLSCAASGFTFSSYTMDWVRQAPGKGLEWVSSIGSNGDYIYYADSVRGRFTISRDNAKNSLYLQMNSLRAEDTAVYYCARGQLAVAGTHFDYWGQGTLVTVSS VL: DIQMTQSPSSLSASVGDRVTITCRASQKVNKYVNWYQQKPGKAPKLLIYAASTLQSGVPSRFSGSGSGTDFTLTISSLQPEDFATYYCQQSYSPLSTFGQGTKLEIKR | criterion met
3B5 (antibody, V domains shown, also called 3B5wt) VH: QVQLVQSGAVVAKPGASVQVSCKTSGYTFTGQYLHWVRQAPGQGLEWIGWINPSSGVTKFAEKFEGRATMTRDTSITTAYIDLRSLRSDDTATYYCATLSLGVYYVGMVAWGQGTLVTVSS VL: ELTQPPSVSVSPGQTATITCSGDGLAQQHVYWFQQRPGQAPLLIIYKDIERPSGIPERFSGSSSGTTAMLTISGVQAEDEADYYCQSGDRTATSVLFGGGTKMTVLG | criterion not met
